- assay name: M. tuberculosis growth inhibition, HTS (AID 1259417);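 also: bacteria grown with compound for 5 days at 37 °C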
- condition details: M. tuberculosis growth inhibition; stronger effect = higher value; concentration not given here
Screen size: about 1,100 compounds; about 760 (69%) were called active. So high a share suggests a set chosen from earlier hits. The list shows a part of the results.
Answer Not fulfilled if inhibition is under 70%, and Fulfilled if it is 70% or more.

{"columns": ["compound", "assigned category"],
 "data": [
  ["Cc1ccc(Nc2nc(N3CCN(C)CC3)nc(N)c2[N+](=O)[O-])cc1C", "Not fulfilled"],
  ["COc1ccc(-c2c(C)oc3cc(OCC(=O)OC(C)C)ccc3c2=O)cc1OC", "Not fulfilled"],
  ["CCN(CC)c1ccc(/C=C(/C#N)c2nc3ccccc3[nH]2)c(OC(C)C)c1", "Not fulfilled"],
  ["CC(C)(C)C(=O)NC(=S)NNC(=O)C(c1ccccc1)c1ccccc1", "Not fulfilled"],
  ["COc1ccc(C(C)(C)C)cc1NC(=S)Nc1ccc(Cl)c(Cl)c1", "Not fulfilled"],
  ["COC(=O)C(C)Oc1ccc2c(=O)c(-c3ccc(Br)cc3)c(C)oc2c1 (stereo not given)", "Fulfilled"],
  ["CCOC(=O)COc1ccc2c(=O)c(-c3ccc(OC)cc3)c(C)oc2c1", "Fulfilled"],
  ["CCOC(=O)N1CCN(C(=O)CSc2nnc(-c3cc(OC)cc(OC)c3)o2)CC1", "Not fulfilled"],
  ["Cc1ccc(C)c(N=Nc2nc3ccccc3n2C)c1", "Fulfilled"],
  ["CC(C)CC(=O)NC(c1ccc(Cl)cc1Cl)c1c(O)ccc2ccccc12 (stereo not given)", "Not fulfilled"]
]}

Ref: PubChem BioAssay AID1259417
